assay: chemical genetic growth profiling, strain panel (AID 1159580);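 further: tested at 20 µM; growth read once vehicle control cultures reached saturation at 30 °C; 1 = growth at the plate median or of vehicle wells; lower values mean less growth of the strain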; settings: S. cerevisiae deletion strains, growth OD, locus YHR079C, strain IRE1, stronger effect = lower value
The whole screen tested about 5,500 compounds, of which about 2,000 (36%) were called active. Another 18% or so got no clear call; they are omitted. This is one part of the list.
Quantity kind: normalized growth
Lab note: jot the number down without any unit.

Example cases with answers are listed next.
1. Cc1onc(-c2ccccc2Cl)c1C(=O)N[C@@H]1C(=O)N2[C@@H]1SC(C)(C)[C@@H]2C(=O)O ... 1
2. NC(N)=NC(N)=Nc1ccccc1 ... 1
3. Cc1c(NC(=O)c2cccnc2)c(=O)n(-c2ccccc2)n1C ... 1.02
4. Cc1cc(C(C)(C)C)c(O)c(C)c1CC1=NCCN1 ... 0.977
5. C1CCC(C(CC2CCCCN2)C2CCCCC2)CC1 (stereo not given) ... 1.02
6. CN1CCN(CC(=O)N2c3ccccc3C(=O)Nc3cccnc32)CC1 ... 0.986

Req: For `CCOc1cccc(C(=O)c2ccc(O)c(O)c2O)c1` , what is its reported normalized growth?
Resp: 1.02

Req: Fill blank: measured normalized growth of the molecule `CN(C(=O)C(Cl)Cl)c1ccc(OC(=O)c2ccco2)cc1` is ____.
Resp: 0.98

Req: Sample `CC1(C)S[C@@H]2[C@H](NC(=O)Cc3ccccc3)C(=O)N2[C@H]1C(=O)O` — what was its normalized growth?
Resp: 0.981

Req: Look up normalized growth for this molecule: `CC1(C)S[C@@H]2[C@H](NC(=O)[C@H](C(=O)O)c3cccs3)C(=O)N2[C@H]1C(=O)O`
Resp: 1.02
